Each entry below carries its reported MIC Streptococcus pyogenes (GC 4563).
System: Streptococcus sp.
Assay: in vitro antibacterial evaluation, MIC by broth dilution
Format: cell-based
Conditions: strain GC 4563; broth dilution, 18 hours at 35° C.
Give the value in µg/mL but do not write µg/mL after it.

compound="CC(c1ccccc1)C1NC(=O)CNC(=O)C(CO)NC(=O)C(C(O)C2CNC(=N)N2C2OC(CO)C(O)C(O)C2O)NC(=O)C(C(O)C2CNC(=N)N2)NC(=O)C(Cc2ccc3oc(-c4ccc(Br)cc4)nc3c2)NC1=O (stereo not shown)" number=8

Moving on to the next compound.
Q. # input compound: COc1cc(OC)cc(C2OC3C(OC4C(CO)OC(Oc5ccc(CC6NC(=O)C(C(C)c7ccccc7)NC(=O)CNC(=O)C(CO)NC(=O)C(C(O)C7CNC(=N)N7C7OC(CO)C(O)C(O)C7O)NC(=O)C(C(O)C7CNC(=N)N7)NC6=O)cc5)C(O)C4O)OC(CO)C(O)C3O2)c1 (stereo not shown) [Example 150a] ; wanted: its MIC Streptococcus pyogenes (GC 4563)
A. 16

----------
System: Enterococcus sp.
Test: in vitro antibacterial evaluation, MIC by broth dilution
Format: cell-based
Details: broth dilution, 18 hours at 35° C.; strain GC 2242
Numbered stars: 1 amine (or outer) side, 2 acyl side, 3 side chain; on linkers, the order of the positions; unused ones are H or OH. Square brackets hold non-standard residues; d marks the D form. Peptide text beside a SMILES is read from it. * marks the point of attachment. ξ: configuration not given here. X1 = N=C1NCC(C(O)C(N[*:1])C(=O)[*:2])N1C1OC(CO)C(O)C(O)C1O; ξEnduracididine(βξ-OH,4'ξ) = N=C1NCC(C(O)C(N)C(=O)O)N1; ξPhe(4-Cl,βξ-Me) = CC(c1ccc(Cl)cc1)C(N)C(=O)O; X2 = OCC1OC(OC2C(CO)OC(*)C(O)C2O)C(O)C(O)C1O
Each entry below carries its reported MIC Enterococcus faecalis (GC 2242).

Example cases with answers are listed next.
compound="CCCCCC(=O)OCC1OC(Oc2ccc(CC3NC(=O)C(C(C)c4ccccc4)NC(=O)CNC(=O)C(CO)NC(=O)C(C(O)C4CNC(=N)N4C4OC(CO)C(O)C(O)C4O)NC(=O)C(C(O)C4CNC(=N)N4)NC3=O)cc2)C(O)C(O)C1OC1OC(CO)C(O)C(O)C1O (stereo not shown) [Example 95a]" target_system="Enterococcus sp." result="16 µg/mL"
compound="CC(c1ccccc1)C1NC(=O)CNC(=O)C(CO)NC(=O)C(CC2CN(Cc3ccccc3)C(=NCc3ccccc3)N2C2OC(CO)C(O)C(O)C2O)NC(=O)C(CC2CN(Cc3ccccc3)C(=NCc3ccccc3)N2Cc2ccccc2)NC(=O)C(Cc2ccc(OC3OC(CO)C(OC4OC(CO)C(O)C(O)C4O)C(O)C3O)cc2)NC1=O (stereo not shown)" target_system="Enterococcus sp." result=">128 µg/mL"
compound="CC(c1ccc(Cl)cc1)C1NC(=O)CNC(=O)C(CO)NC(=O)C(C(O)C2CNC(=N)N2C2OC(CO)C(O)C(O)C2O)NC(=O)C(C(O)C2CNC(=N)N2)NC(=O)C(Cc2ccc(OC3OC(CO)C(OC4OC(CO)C(O)C(O)C4O)C(O)C3O)cc2)NC1=O (stereo not drawn) [Example 262a] (cyclo(G[ξPhe(4-Cl,βξ-Me)]Y(X2)[ξEnduracididine(βξ-OH,4'ξ)][X1]S); configuration not given here)" target_system="Enterococcus sp." result=">128 µg/mL"

Q. # input compound: CC(c1ccccc1)C1NC(=O)CNC(=O)C(CO)NC(=O)C(C(O)C2CNC(=N)N2C2OC(CO)C(O)C(O)C2O)NC(=O)C(C(O)C2CNC(=N)N2)NC(=O)C(Cc2ccc(OC3OC(CO)C(OC4OC5COC6(OC5C(O)C4O)C4CC5CC(C4)CC6C5)C(O)C3O)cc2)NC1=O (stereo not shown) ; wanted: its MIC Enterococcus faecalis (GC 2242)
A. 0.5 to 2 µg/mL
